test details: Cytotoxicity against human QSG7701 cells assessed as inhibition rate at 100 uM measured after 48 hrs by MTT assay
Assay type: cell-based
condition info: read-out: INH
Criterion: cytotoxicity at 48 h, 100 µM meeting or surpassing 40%. Met: y. Not met: n.

>  <compound>
COc1ccc2oc(-c3ccc(NC(=O)Nc4cccc(Cl)c4)cc3Cl)cc(=O)c2c1

>  <class assignment>
n

$$$$
>  <compound>
CCc1ccc2oc(-c3ccc(NC(=O)Cc4cccc(F)c4)cc3Cl)cc(=O)c2c1

>  <class assignment>
n

$$$$
>  <compound>
CCc1ccc2oc(-c3ccc(NC(=O)Nc4cccc(Cl)c4)cc3Cl)cc(=O)c2c1

>  <class assignment>
n

$$$$
>  <compound>
CCc1ccc2oc(-c3ccc(NC(=O)Cc4ccc(F)cc4)cc3Cl)cc(=O)c2c1

>  <class assignment>
n

$$$$
>  <compound>
O=C(Nc1cccc(Cl)c1)Nc1ccc(-c2cc(=O)c3cc(F)ccc3o2)c(Cl)c1

>  <class assignment>
y

$$$$

====

We begin with a simple list: items and their reported cytotoxicity at 48 h, 100 µM.
test details: Cytotoxicity against human QSG7701 cells assessed as inhibition rate at 100 uM measured after 48 hrs by MTT assay
Format: cell-based
condition info: read-out: INH

>  <compound>
O=C(Nc1cccc(Cl)c1)Nc1ccc(-c2cc(=O)c3ccc(O)cc3o2)c(Cl)c1

>  <cytotoxicity at 48 h, 100 µM>
43.2%

$$$$
>  <compound>
COc1ccc2oc(-c3ccc(NC(=O)Nc4ccc(Cl)c(Cl)c4)cc3Cl)cc(=O)c2c1

>  <cytotoxicity at 48 h, 100 µM>
42.5%

$$$$
>  <compound>
CNC(=O)c1cc(Oc2ccc(NC(=O)Nc3ccc(Cl)c(C(F)(F)F)c3)cc2)ccn1

>  <cytotoxicity at 48 h, 100 µM>
23.2%

$$$$
>  <compound>
CCc1ccc2oc(-c3ccc(NC(=O)Nc4ccc(Cl)cc4)cc3Cl)cc(=O)c2c1

>  <cytotoxicity at 48 h, 100 µM>
31.8%

$$$$
>  <compound>
O=C(Nc1cccc(Cl)c1)Nc1ccc(-c2cc(=O)c3ccccc3o2)c(Cl)c1

>  <cytotoxicity at 48 h, 100 µM>
62.4%

$$$$

====

measured target: RAF proto-oncogene serine/threonine-protein kinase (Homo sapiens) (UniProt P04049)
Sequence (P04049 whole entry): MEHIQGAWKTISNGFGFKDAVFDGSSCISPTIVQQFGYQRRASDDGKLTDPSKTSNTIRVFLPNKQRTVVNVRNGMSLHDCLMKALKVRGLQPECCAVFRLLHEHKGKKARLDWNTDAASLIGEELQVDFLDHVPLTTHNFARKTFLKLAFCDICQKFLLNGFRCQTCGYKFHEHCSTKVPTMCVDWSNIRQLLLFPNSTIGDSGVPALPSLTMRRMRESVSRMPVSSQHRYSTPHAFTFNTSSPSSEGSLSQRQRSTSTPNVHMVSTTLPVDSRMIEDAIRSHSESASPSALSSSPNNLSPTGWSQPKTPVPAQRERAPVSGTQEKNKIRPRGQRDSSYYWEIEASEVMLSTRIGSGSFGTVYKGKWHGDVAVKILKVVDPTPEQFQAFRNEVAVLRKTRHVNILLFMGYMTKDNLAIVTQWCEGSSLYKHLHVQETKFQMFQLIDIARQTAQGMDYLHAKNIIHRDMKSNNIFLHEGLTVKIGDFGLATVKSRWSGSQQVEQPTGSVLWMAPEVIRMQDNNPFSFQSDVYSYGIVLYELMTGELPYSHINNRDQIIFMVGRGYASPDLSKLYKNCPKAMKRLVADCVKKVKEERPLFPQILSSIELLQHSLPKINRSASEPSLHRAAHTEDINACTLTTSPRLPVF
test details: Inhibition of Raf1 (unknown origin) at 50 uM
inhibition: recorded values

>  <compound>
CCc1ccc2oc(-c3ccc(NC(=O)Nc4ccc(Cl)cc4)cc3Cl)cc(=O)c2c1

>  <inhibition>
65.6%

$$$$
>  <compound>
CNC(=O)c1cc(Oc2ccc(NC(=O)Nc3ccc(Cl)c(C(F)(F)F)c3)cc2)ccn1

>  <inhibition>
101%

$$$$
>  <compound>
CCc1ccc2oc(-c3ccc(N)cc3Cl)cc(=O)c2c1

>  <inhibition>
27%

$$$$

====

Test system: A549
test details: Antiproliferative activity against human A549 cells assessed as growth inhibition measured after 48 hrs by MTT assay
Format: functional, cell-based
condition info: A549, 48 h
pIC50: −log10 of the molar value.
# pIC50 per entry
measure: pIC50

>  <compound>
O=C(Nc1cccc(Cl)c1)Nc1ccc(-c2cc(=O)c3ccccc3o2)c(Cl)c1

>  <measured target>
A549

>  <measure>
pIC50

>  <result modifier>
=

>  <reported result>
4.85

$$$$
>  <compound>
CCc1ccc2oc(-c3ccc(NC(=O)Nc4cccc(Cl)c4)cc3Cl)cc(=O)c2c1

>  <measured target>
A549

>  <measure>
pIC50

>  <result modifier>
<

>  <reported result>
4.30

$$$$
>  <compound>
COc1ccc2oc(-c3ccc(NC(=O)Nc4ccc(Cl)c(Cl)c4)cc3Cl)cc(=O)c2c1

>  <measured target>
A549

>  <measure>
pIC50

>  <result modifier>
=

>  <reported result>
4.81

$$$$
>  <compound>
CCc1ccc2oc(-c3ccc(NC(=O)Cc4ccc(F)cc4)cc3Cl)cc(=O)c2c1

>  <measured target>
A549

>  <measure>
pIC50

>  <result modifier>
<

>  <reported result>
4.30

$$$$
>  <compound>
O=C(Nc1cccc(Cl)c1)Nc1ccc(-c2cc(=O)c3ccc(O)cc3o2)c(Cl)c1

>  <measured target>
A549

>  <measure>
pIC50

>  <result modifier>
=

>  <reported result>
4.77

$$$$
>  <compound>
CCc1ccc2oc(-c3ccc(NC(=O)Nc4ccc(Cl)cc4)cc3Cl)cc(=O)c2c1

>  <measured target>
A549

>  <measure>
pIC50

>  <result modifier>
<

>  <reported result>
4.30

$$$$
>  <compound>
O=C(Nc1cccc(Cl)c1)Nc1ccc(-c2cc(=O)c3cc(F)ccc3o2)c(Cl)c1

>  <measured target>
A549

>  <measure>
pIC50

>  <result modifier>
<

>  <reported result>
4.30

$$$$
>  <compound>
COc1ccc2oc(-c3ccc(NC(=O)Nc4cccc(Cl)c4)cc3Cl)cc(=O)c2c1

>  <measured target>
A549

>  <measure>
pIC50

>  <result modifier>
=

>  <reported result>
4.96

$$$$
>  <compound>
CCc1ccc2oc(-c3ccc(NC(=O)Cc4cccc(F)c4)cc3Cl)cc(=O)c2c1

>  <measured target>
A549

>  <measure>
pIC50

>  <result modifier>
<

>  <reported result>
4.30

$$$$
>  <compound>
CNC(=O)c1cc(Oc2ccc(NC(=O)Nc3ccc(Cl)c(C(F)(F)F)c3)cc2)ccn1

>  <measured target>
A549

>  <measure>
pIC50

>  <result modifier>
=

>  <reported result>
5.35

$$$$

====

Test system: HepG2
test details: Antiproliferative activity against human HepG2 cells assessed as growth inhibition measured after 48 hrs by MTT assay
Assay type: functional, cell-based
condition info: HepG2, 48 h
pIC50: −log10 of the molar value.

>  <molecule>
CCc1ccc2oc(-c3ccc(NC(=O)Cc4cccc(F)c4)cc3Cl)cc(=O)c2c1

>  <result modifier>
=

>  <pIC50>
4.70

$$$$
>  <molecule>
CCc1ccc2oc(-c3ccc(NC(=O)Cc4ccc(F)cc4)cc3Cl)cc(=O)c2c1

>  <result modifier>
<

>  <pIC50>
4.30

$$$$
>  <molecule>
O=C(Nc1cccc(Cl)c1)Nc1ccc(-c2cc(=O)c3ccccc3o2)c(Cl)c1

>  <result modifier>
=

>  <pIC50>
5.01

$$$$
>  <molecule>
COc1ccc2oc(-c3ccc(NC(=O)Nc4cccc(Cl)c4)cc3Cl)cc(=O)c2c1

>  <result modifier>
=

>  <pIC50>
4.58

$$$$
>  <molecule>
COc1ccc2oc(-c3ccc(NC(=O)Nc4ccc(Cl)c(Cl)c4)cc3Cl)cc(=O)c2c1

>  <result modifier>
=

>  <pIC50>
5.00

$$$$
>  <molecule>
CCc1ccc2oc(-c3ccc(NC(=O)Nc4ccc(Cl)cc4)cc3Cl)cc(=O)c2c1

>  <result modifier>
=

>  <pIC50>
5.08

$$$$
>  <molecule>
CNC(=O)c1cc(Oc2ccc(NC(=O)Nc3ccc(Cl)c(C(F)(F)F)c3)cc2)ccn1 [SORAFENIB]

>  <result modifier>
=

>  <pIC50>
5.30

$$$$
>  <molecule>
CCc1ccc2oc(-c3ccc(NC(=O)Nc4cccc(Cl)c4)cc3Cl)cc(=O)c2c1

>  <result modifier>
=

>  <pIC50>
4.51

$$$$
>  <molecule>
O=C(Nc1cccc(Cl)c1)Nc1ccc(-c2cc(=O)c3ccc(O)cc3o2)c(Cl)c1

>  <result modifier>
=

>  <pIC50>
4.91

$$$$
>  <molecule>
O=C(Nc1cccc(Cl)c1)Nc1ccc(-c2cc(=O)c3cc(F)ccc3o2)c(Cl)c1

>  <result modifier>
=

>  <pIC50>
4.50

$$$$

====

test details: Cytotoxicity against human HL7702 cells assessed as inhibition rate at 50 uM measured after 48 hrs by MTT assay
Type: cell-based, L02
condition info: read-out: INH

>  <compound>
CCc1ccc2oc(-c3ccc(NC(=O)Nc4ccc(Cl)cc4)cc3Cl)cc(=O)c2c1

>  <cytotoxicity at 48 h, 50 µM, %>
18.7

$$$$
>  <compound>
CCc1ccc2oc(-c3ccc(NC(=O)Cc4cccc(F)c4)cc3Cl)cc(=O)c2c1

>  <cytotoxicity at 48 h, 50 µM, %>
20.4

$$$$
>  <compound>
COc1ccc2oc(-c3ccc(NC(=O)Nc4cccc(Cl)c4)cc3Cl)cc(=O)c2c1

>  <cytotoxicity at 48 h, 50 µM, %>
35.7

$$$$
>  <compound>
CNC(=O)c1cc(Oc2ccc(NC(=O)Nc3ccc(Cl)c(C(F)(F)F)c3)cc2)ccn1

>  <cytotoxicity at 48 h, 50 µM, %>
5.3

$$$$
>  <compound>
O=C(Nc1cccc(Cl)c1)Nc1ccc(-c2cc(=O)c3cc(F)ccc3o2)c(Cl)c1

>  <cytotoxicity at 48 h, 50 µM, %>
20.1

$$$$

====

test details: Cytotoxicity against human HL7702 cells assessed as inhibition rate at 50 uM measured after 48 hrs by MTT assay
Type: cell-based, L02
condition info: read-out: INH
// NB: equality with 70% counts as 0.0; only cytotoxicity at 48 h, 50 µM strictly below is 1.0

>  <compound>
O=C(Nc1cccc(Cl)c1)Nc1ccc(-c2cc(=O)c3ccc(O)cc3o2)c(Cl)c1

>  <class assignment>
0.0

$$$$
>  <compound>
O=C(Nc1cccc(Cl)c1)Nc1ccc(-c2cc(=O)c3ccccc3o2)c(Cl)c1

>  <class assignment>
1.0

$$$$
>  <compound>
CCc1ccc2oc(-c3ccc(NC(=O)Cc4ccc(F)cc4)cc3Cl)cc(=O)c2c1

>  <class assignment>
1.0

$$$$
>  <compound>
COc1ccc2oc(-c3ccc(NC(=O)Nc4ccc(Cl)c(Cl)c4)cc3Cl)cc(=O)c2c1

>  <class assignment>
1.0

$$$$
>  <compound>
CCc1ccc2oc(-c3ccc(NC(=O)Nc4cccc(Cl)c4)cc3Cl)cc(=O)c2c1

>  <class assignment>
1.0

$$$$

Where do the numbers come from? From ChEMBL document CHEMBL2331396.
